Values were extracted from ChEMBL document CHEMBL1135482.

Target: Melatonin receptor type 1B (Homo sapiens)
Sequence (whole entry): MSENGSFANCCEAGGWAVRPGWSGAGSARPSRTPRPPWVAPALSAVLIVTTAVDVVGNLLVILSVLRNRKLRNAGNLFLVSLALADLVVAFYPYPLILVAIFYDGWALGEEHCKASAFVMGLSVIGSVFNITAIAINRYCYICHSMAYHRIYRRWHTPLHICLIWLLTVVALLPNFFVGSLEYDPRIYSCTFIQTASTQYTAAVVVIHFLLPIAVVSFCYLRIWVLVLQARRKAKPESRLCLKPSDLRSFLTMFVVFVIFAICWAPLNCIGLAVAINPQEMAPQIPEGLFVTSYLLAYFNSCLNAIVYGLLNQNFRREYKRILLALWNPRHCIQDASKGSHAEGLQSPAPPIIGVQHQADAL
Assay: Antagonist potency determined against 3 nM melatonin for Melatonin receptor type 1B
Assay type: functional
METRIC: log10 Kb (log10 of the value in nM)

>>> print(df.to_string())
                                   compound                        measurement_target    metric  experimental_result
0   COc1cccc(Cc2oc3ccc(OC)cc3c2CCNC(C)=O)c1  Melatonin receptor type 1B (Homo sapiens)  log10 Kb                 0.22
1         CC(=O)NCCc1c(Cc2ccccc2)oc2ccccc12  Melatonin receptor type 1B (Homo sapiens)  log10 Kb                 1.08
2     COc1ccc2oc(CC3CCCCC3)c(CCNC(C)=O)c2c1  Melatonin receptor type 1B (Homo sapiens)  log10 Kb                 0.85
3   COc1ccc2oc(Cc3ccccc3OC)c(CCNC(C)=O)c2c1  Melatonin receptor type 1B (Homo sapiens)  log10 Kb                -0.06
4  COc1ccc2oc(Cc3cccc(C(F)(F)F)c3)c(CCNC(C)=O)c2c1  Melatonin receptor type 1B (Homo sapiens)  log10 Kb                 0.38
5   COc1ccc(Cc2oc3ccc(OC)cc3c2CCNC(C)=O)cc1  Melatonin receptor type 1B (Homo sapiens)  log10 Kb                -0.38
6  CCc1ccc2oc(Cc3cccc(OC)c3)c(CCNC(C)=O)c2c1  Melatonin receptor type 1B (Homo sapiens)  log10 Kb                 1.26
7  C=CCC(=O)NCCc1c(Cc2ccccc2)oc2ccc(OC)cc12  Melatonin receptor type 1B (Homo sapiens)  log10 Kb                -0.80
8  C=CCC(=O)NCCc1c(Cc2cccc(OC)c2)oc2ccc(OC)cc12  Melatonin receptor type 1B (Homo sapiens)  log10 Kb                -0.62
9     COc1ccc2oc(Cc3ccccc3)c(CCNC(C)=O)c2c1  Melatonin receptor type 1B (Homo sapiens)  log10 Kb                -0.68

---

Target: UniProt P49286
Experiment: Intrinsic activity at human Melatonin receptor type 1B evaluated on [35S]GTP-gamma-S, binding in Chinese hamster ovarian (CHO) cells
METRIC: EC50

                                  compound  experimental_result
0    COc1ccc2oc(Cc3ccccc3)c(CCNC(C)=O)c2c1              > 10 µM
1        CC(=O)NCCc1c(Cc2ccccc2)oc2ccccc12              > 10 µM
2  COc1ccc(Cc2oc3ccc(OC)cc3c2CCNC(C)=O)cc1              > 10 µM
